- measuredOn: T1, 017-mut2 peptide (…)/HLA-A*02:01 complex on T2 cells (human)
- T1 construct: Alanine mutant at position 2, the anchor position; the peptide may load poorly onto HLA-A2; also called EXT017-mut2
- experimentDescription: flow cytometry, phage on peptide-loaded T2 cells
Below, each of the binders is paired with its reported MFI value.
reportedEndpoint: MFI

[[record]]
binder = "EXT017-53 scFv phage clone (scFv, full-length scFv with His+HA tags; also called EXT017-53 phage) scFv: NFMLTQPHSVSESPGKTVTISCTRSSGSIASHYVQWYQQRPGSSPTTVIYENNQRPSGVPDRFSGSIDSSSNSASLTISGLKTEDEADYYCQSYDRSNHVVFGGGTKLTVLGSRGGGGSGGGGSGGGGSLEMAQVQLVQSGAEVKKPGASVKVSCKASGYTFTNYYIHWVRQAPGEGLEWMGIIRPSGGNTNYAQKFQGRVTMTRDTSTRTVYMELSSLRSEDTAVYYCARSWNSRDVDSWGQGTLVTVSSTSGQAGQHHHHHHGAYPYDVPDYAS"
reportedendpoint = "MFI"
endpointvalue = 95.3

[[record]]
binder = "EXT017-32 scFv phage clone (scFv, also called EXT017-32 phage; phage clone #32) scFv: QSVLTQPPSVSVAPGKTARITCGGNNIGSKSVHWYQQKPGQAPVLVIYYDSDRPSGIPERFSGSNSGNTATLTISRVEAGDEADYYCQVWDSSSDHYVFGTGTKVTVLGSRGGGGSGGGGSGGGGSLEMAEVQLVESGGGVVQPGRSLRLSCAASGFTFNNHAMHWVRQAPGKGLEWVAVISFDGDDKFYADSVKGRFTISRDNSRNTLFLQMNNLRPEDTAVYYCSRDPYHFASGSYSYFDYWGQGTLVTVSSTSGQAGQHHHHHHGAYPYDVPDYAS"
reportedendpoint = "MFI"
endpointvalue = 103

[[record]]
binder = "EXT017-17 scFv phage clone (scFv, fusion to the phage coat protein not described; also called EXT017-17 phage; phage clone #17) scFv: QSVLTQPPSVSGAPGQRVTISCTGSSSNIGAGYDVHWYQQLPGTAPKLLIYGNSNRPSGVPDRFSGSKSGTSASLAITGLQAEDEADYYCQSYDSSLSGYVFGTGTKVTVLGSRGGGGSGGGGSGGGGSLEMAEVQLVQSGAEVKKPGSSVKVSCKASGDTFSRYAISWVRQAPGQGLEWMGRIIPIFGTPNYAQKFQGRVTITADEFTSTAYMELSSLRSEDTAMYYCARSIYRYSEYDHWGQGTLVTVSSTSGQAGQHHHHHHGAYPYDVPDYAS"
reportedendpoint = "MFI"
endpointvalue = 99.8

